# Method summary: A CellTox Green Cytotoxicity Assay to monitor cytotoxicity in HEK293 cells - 40 hour (AID 1224871); note: % is set by controls: 0 for no effect and ±100 for the full control effect; nearly all actives have a fitted effect of over 45% in size
# Test conditions: CellTox Green fluorescence; series mostly up to 76.8 µM
Records with an inconclusive call do not appear. Calls of active or inactive are those of the source. Calls come from the whole dose curve; as a rule, active = well fitted activation curve with a large enough effect in the repeat runs; inconclusive = weak or mixed curves; inactive = flat fitted curve, though single readings scatter.
So I've got a bunch of compounds here, and I need their cytotoxicity increase values.

Examples with answers:
Compound	cytotoxicity increase
COc1cc2nc(N3CCN(C(=O)c4ccco4)CC3)nc(N)c2cc1OC	63.2% [at 15.8 µM] (inactive)
C[C@H]1NCc2cc(-c3ccc4c(=O)c(C(=O)O)cn(C5CC5)c4c3OC(F)F)ccc21	-4.15% [at 15.8 µM] (inactive)
C[C@@H](O)[C@H](N)C(=O)O	-7.08% [at 15.8 µM] (inactive)
CC(C)(C)CC(C)(C)c1ccc(Nc2ccc(C(C)(C)CC(C)(C)C)cc2)cc1	0.599% [at 6.97 µM] (inactive)

Now consider the entry below.
Lookup: What does the record list as cytotoxicity increase for NC[C@H]1O[C@H](O[C@H]2[C@H](O[C@@H]3O[C@H](CO)[C@@H](O)[C@H]3O)C(O)[C@H](N)C[C@@H]2N)[C@H](N)[C@@H](O)[C@@H]1O (stereo not given in full) ?
Found: -12.4% [at 6.97 µM] (inactive)
